Test system: PC-3 (androgen independent prostate cancer cells)
experiment description: Anti-proliferation activity against PC-3 cells
Type: cell-based
details: Homo sapiens, PC-3; Table 5, heterocyclic analogues; n = 3; read-out: IC50 PC-3
Rule: IC50 below 10 µM gives 1.0, anything at or above gives 0.0.

# example entries with known answers
CO[C@@H]1[C@@H](O)[C@@H](O)[C@H](Oc2ccc3cc(NC(=O)c4cccnc4)c(=O)oc3c2C)OC1(C)C; 0.0
CO[C@@H]1[C@@H](O)[C@@H](O)[C@H](Oc2ccc3cc(NC(=O)c4ccc5c(c4)OCO5)c(=O)oc3c2C)OC1(C)C; 0.0
CO[C@@H]1[C@@H](O)[C@@H](O)[C@H](Oc2ccc3cc(NC(=O)c4cc5ccccc5s4)c(=O)oc3c2C)OC1(C)C; 1.0
CO[C@@H]1[C@@H](O)[C@@H](O)[C@H](Oc2ccc3cc(NC(=O)c4cc5ccccc5[nH]4)c(=O)oc3c2C)OC1(C)C; 0.0
CO[C@@H]1[C@@H](O)[C@@H](O)[C@H](Oc2ccc3cc(NC(=O)c4cc5ccccc5o4)c(=O)oc3c2C)OC1(C)C; 0.0

Does the reported IC50 of the following compound sit strictly below 10 µM? CO[C@@H]1[C@@H](O)[C@@H](O)[C@H](Oc2ccc3cc(NC(=O)c4c[nH]c5ccccc45)c(=O)oc3c2C)OC1(C)C
1.0

Does the reported IC50 of the following compound sit strictly below 10 µM? CO[C@@H]1[C@@H](O)[C@@H](O)[C@H](Oc2ccc3cc(NC(=O)c4ccccn4)c(=O)oc3c2C)OC1(C)C
0.0

----------
Test system: PC-3 (androgen independent prostate cancer cells)
experiment description: Anti-proliferation activity against PC-3 cells
Type: cell-based
details: Homo sapiens, PC-3; Table 6; 72 hours, MTS/PMS; mean ± standard deviation; read-out: IC50 PC-3
Rule: IC50 below 6 µM gives y, anything at or above gives n.

# example entries with known answers
CCCOc1cc2cc(NC(=O)c3ccc(OC)c(-c4cccc(OC)c4)c3)c(=O)oc2c(C)c1O[C@@H]1OC(C)(C)[C@H](OC)[C@@H](O)[C@H]1O [26b]; y
CCc1c(O[C@@H]2OC(C)(C)[C@H](OC)[C@@H](O)[C@H]2O)ccc2cc(NC(=O)c3ccc(OC)c(-c4cccc(OC)c4)c3)c(=O)oc12 [26h]; y
COc1cccc(-c2cc(C(=O)Nc3cc4cc(OC)c(O[C@@H]5OC(C)(C)[C@H](OC)[C@@H](O)[C@H]5O)c(C)c4oc3=O)ccc2OC)c1 [26a]; n

Does the reported IC50 of the following compound sit strictly below 6 µM? CO[C@@H]1[C@@H](O)[C@@H](O)[C@H](Oc2ccc3cc(NC(=O)c4cc5ccccc5[nH]4)c(=O)oc3c2-c2ccccc2)OC1(C)C [26n]
n

Does the reported IC50 of the following compound sit strictly below 6 µM? COc1cccc(-c2cc(C(=O)Nc3cc4ccc(O[C@@H]5OC(C)(C)[C@H](OC)[C@@H](O)[C@H]5O)c(OC)c4oc3=O)ccc2OC)c1 [26g]
y

Does the reported IC50 of the following compound sit strictly below 6 µM? COc1cccc(-c2cc(C(=O)Nc3cc4ccc(O[C@@H]5OC(C)(C)[C@H](OC)[C@@H](O)[C@H]5O)c(Cc5ccccc5)c4oc3=O)ccc2OC)c1 [26e]
n

Does the reported IC50 of the following compound sit strictly below 6 µM? CO[C@@H]1[C@@H](O)[C@@H](O)[C@H](Oc2ccc3cc(NC(=O)c4cc5ccccc5[nH]4)c(=O)oc3c2Cc2ccccc2)OC1(C)C [26m]
n

Does the reported IC50 of the following compound sit strictly below 6 µM? COc1cccc(-c2cc(C(=O)Nc3cc4cc(OC(C)C)c(O[C@@H]5OC(C)(C)[C@H](OC)[C@@H](O)[C@H]5O)c(C)c4oc3=O)ccc2OC)c1 [26c]
n

Does the reported IC50 of the following compound sit strictly below 6 µM? COc1cc(O[C@@H]2OC(C)(C)[C@H](OC)[C@@H](O)[C@H]2O)c(C)c2oc(=O)c(NC(=O)c3cc4ccccc4[nH]3)cc12 [26l]
n

Does the reported IC50 of the following compound sit strictly below 6 µM? COc1c(O[C@@H]2OC(C)(C)[C@H](OC)[C@@H](O)[C@H]2O)ccc2cc(NC(=O)c3cc4ccccc4[nH]3)c(=O)oc12 [26o]
n
